Conditions: in isopropanol, 293.15 K
value_type: solubility (mole fraction)

O=C(O)c1cccnc1 0.00276

---

Conditions: in acetone, 283.15 K
value_type: solubility (mole fraction)

O=C(O)c1cccnc1 0.00062

---

Details: in isopropanol, 333.15 K
value_type: solubility (mole fraction)

O=C(O)c1cccnc1 0.0125

---

Details: in methanol, 283.15 K
value_type: solubility (mole fraction)

O=C(O)c1cccnc1 0.00238

---

Conditions: in n-propanol, 293.15 K
value_type: solubility (mole fraction)

O=C(O)c1cccnc1 0.00285

---

Conditions: in DMSO, 283.15 K
value_type: solubility (mole fraction)

O=C(O)c1cccnc1 0.0437

---

Conditions: in DMSO, 343.15 K
value_type: solubility (mole fraction)

O=C(O)c1cccnc1 0.15

---

Details: in isopropanol, 343.15 K
value_type: solubility (mole fraction)

O=C(O)c1cccnc1 0.0172

---

Conditions: in methanol, 323.15 K
value_type: solubility (mole fraction)

O=C(O)c1cccnc1 0.0129

---

Details: in water, 303.15 K
value_type: solubility (mole fraction)

O=C(O)c1cccnc1 0.00279

---

Conditions: in ethanol, 313.15 K
value_type: solubility (mole fraction)

O=C(O)c1cccnc1 0.00683

---

Details: in ethyl acetate, 283.15 K
value_type: solubility (mole fraction)

O=C(O)c1cccnc1 0.00033

---

Conditions: in n-butanol, 313.15 K
value_type: solubility (mole fraction)

O=C(O)c1cccnc1 0.00554

---

Conditions: in acetone, 303.15 K
value_type: solubility (mole fraction)

O=C(O)c1cccnc1 0.00166

---

Conditions: in ethyl acetate, 293.15 K
value_type: solubility (mole fraction)

O=C(O)c1cccnc1 0.00054

---

Settings: in n-butanol, 323.15 K
value_type: solubility (mole fraction)

O=C(O)c1cccnc1 0.00855

---

Details: in n-propanol, 333.15 K
value_type: solubility (mole fraction)

O=C(O)c1cccnc1 0.0131

---

Conditions: in n-butanol, 293.15 K
value_type: solubility (mole fraction)

O=C(O)c1cccnc1 0.00231

---

Details: in ethanol, 283.15 K
value_type: solubility (mole fraction)

O=C(O)c1cccnc1 0.00202

---

Conditions: in n-butanol, 343.15 K
value_type: solubility (mole fraction)

O=C(O)c1cccnc1 0.0178

---

Settings: in DMSO, 333.15 K
value_type: solubility (mole fraction)

O=C(O)c1cccnc1 0.127

---

Conditions: in isopropanol, 283.15 K
value_type: solubility (mole fraction)

O=C(O)c1cccnc1 0.00177

---

Conditions: in isopropanol, 313.15 K
value_type: solubility (mole fraction)

O=C(O)c1cccnc1 0.00617

---

Details: in ethyl acetate, 343.15 K
value_type: solubility (mole fraction)

O=C(O)c1cccnc1 0.00603

---

Settings: in n-butanol, 283.15 K
value_type: solubility (mole fraction)

O=C(O)c1cccnc1 0.0014

---

Details: in ethanol, 323.15 K
value_type: solubility (mole fraction)

O=C(O)c1cccnc1 0.00978

---

Settings: in n-butanol, 303.15 K
value_type: solubility (mole fraction)

O=C(O)c1cccnc1 0.00351

---

Details: in DMSO, 293.15 K
value_type: solubility (mole fraction)

O=C(O)c1cccnc1 0.0576

---

Conditions: in ethanol, 343.15 K
value_type: solubility (mole fraction)

O=C(O)c1cccnc1 0.0188

---

Settings: in DMSO, 303.15 K
value_type: solubility (mole fraction)

O=C(O)c1cccnc1 0.0722

---

Conditions: in water, 333.15 K
value_type: solubility (mole fraction)

O=C(O)c1cccnc1 0.00576

---

Conditions: in n-propanol, 323.15 K
value_type: solubility (mole fraction)

O=C(O)c1cccnc1 0.00923

---

Settings: in DMSO, 323.15 K
value_type: solubility (mole fraction)

O=C(O)c1cccnc1 0.107

---

Conditions: in methanol, 293.15 K
value_type: solubility (mole fraction)

O=C(O)c1cccnc1 0.00382

---

Details: in n-butanol, 353.15 K
value_type: solubility (mole fraction)

O=C(O)c1cccnc1 0.0253

---

Conditions: in n-butanol, 333.15 K
value_type: solubility (mole fraction)

O=C(O)c1cccnc1 0.0123

---

Conditions: in n-propanol, 343.15 K
value_type: solubility (mole fraction)

O=C(O)c1cccnc1 0.0186

---

Details: in n-propanol, 303.15 K
value_type: solubility (mole fraction)

O=C(O)c1cccnc1 0.00435

---

Details: in isopropanol, 303.15 K
value_type: solubility (mole fraction)

O=C(O)c1cccnc1 0.00418

---

Conditions: in isopropanol, 323.15 K
value_type: solubility (mole fraction)

O=C(O)c1cccnc1 0.00891

---

Settings: in ethanol, 303.15 K
value_type: solubility (mole fraction)

O=C(O)c1cccnc1 0.00468

---

Details: in methanol, 313.15 K
value_type: solubility (mole fraction)

O=C(O)c1cccnc1 0.00889

---

Details: in acetone, 313.15 K
value_type: solubility (mole fraction)

O=C(O)c1cccnc1 0.00262

---

Settings: in ethyl acetate, 313.15 K
value_type: solubility (mole fraction)

O=C(O)c1cccnc1 0.00149

---

Conditions: in acetone, 323.15 K
value_type: solubility (mole fraction)

O=C(O)c1cccnc1 0.00408
